Would you mind telling me the reported APOE RNA (% UTC) of each entry?
test system: human APOE RNA; experiment: Dose-dependent reduction of human APOE RNA in HepG2 cells, electroporation, 20,000 cells per well, average of GAPDH- and PPIA-normalized results (Example 4, Table 12); format: cell-based; details: 20,000 nM, HepG2, 20,000 cells per well
Strand notation (5' to 3'): a small letter for the sugar, then the base; units joined by * are phosphorothioate-linked, units joined directly phosphodiester-linked; [ ] holds rarer units or linkages, { } end groups; capitals alone tell only the bases. [ms] = mesyl phosphoramidate linkage; e = 2'-O-(2-methoxyethyl) (MOE); k = constrained ethyl (cEt); [5mC] = 5-methylcytosine; d = 2'-deoxy (DNA)
Please state the figure in % UTC; there is no need to write the unit.

[in] State its APOE RNA (% UTC): 1778131: modified oligonucleotide complementary to human APOE RNA (eA*e[5mC]eTeTeGkG*dT*dG[ms]dA[ms]dA*dT*d[5mC]*dT*dT*dT*dA[ms]kTkT*eA*eA; antisense) [compound 1778131]
[out] 6

[in] State its APOE RNA (% UTC): 1746809 (k[5mC]*dT[ms]kT*dG[ms]kG*dT[ms]dG[ms]dA[ms]dA[ms]dT*d[5mC]*dT*dT*dT*dA[ms]dT*dT[ms]kA*kA*kA; antisense) [Compound 1746809]
[out] 10

[in] State its APOE RNA (% UTC): Aes^mCeoTeoTesGesGksTdsGdzAdzAdzTds^mCdsTdsTdsTdsAdzTksTksAesAe (eA*e[5mC]eTeT*eG*kG*dT*dG[ms]dA[ms]dA[ms]dT*d[5mC]*dT*dT*dT*dA[ms]kT*kT*eA*eA) [Compound No. 1757576]
[out] 6

[in] State its APOE RNA (% UTC): 1785617: modified oligonucleotide complementary to human APOE RNA (k[5mC]*dT[ms]dT[ms]kG*dG[ms]kT*dG[ms]dA[ms]dA[ms]dT[ms]d[5mC]*dT*dT*dT*dA*dT*kT*kA*dA[ms]kA; antisense) [compound 1785617]
[out] 6
